// data source = patent US8748624B2

target: human GCGR (Homo sapiens (Human)); assay: Cellular functional assay, cAMP readout (glucagon-stimulated cAMP in HEK293 cells expressing human GCGR); format: cell-based; conditions: hGluc-1 HEK cells, LANCE TR-FRET, IC50 converted to Ki, average if tested more than once
Sequence (P47871 26-477): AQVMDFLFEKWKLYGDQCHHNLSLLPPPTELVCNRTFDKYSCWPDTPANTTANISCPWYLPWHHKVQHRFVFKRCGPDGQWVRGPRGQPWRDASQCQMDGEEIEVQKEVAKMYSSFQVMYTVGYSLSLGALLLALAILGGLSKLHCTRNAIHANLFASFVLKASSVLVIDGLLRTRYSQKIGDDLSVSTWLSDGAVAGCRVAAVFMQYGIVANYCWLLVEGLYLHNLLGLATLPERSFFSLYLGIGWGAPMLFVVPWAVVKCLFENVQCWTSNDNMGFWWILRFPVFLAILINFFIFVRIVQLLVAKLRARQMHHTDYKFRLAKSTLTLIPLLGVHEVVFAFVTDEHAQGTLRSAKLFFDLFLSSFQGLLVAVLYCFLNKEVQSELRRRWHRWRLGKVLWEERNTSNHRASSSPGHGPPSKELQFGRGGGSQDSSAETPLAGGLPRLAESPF
pKi: −log10 of the molar value.
Quick rule for you: pKi at 7 or higher means t, lower means f.

Is reported pKi greater than or equal to 7 here: `O=C(O)CCNC(=O)c1ccc(-c2cc(F)c(F)cc2C(=O)Nc2ccc(-c3ccc(F)cc3)cc2)cn1`
f

Is reported pKi greater than or equal to 7 here: `O=C(O)CCNC(=O)c1ccc(-c2cc(C(F)(F)F)ccc2CNc2ccc(-c3ccc(C(F)(F)F)cc3Cl)cc2)cn1`
t
